Target: EGFR L858R/T790M (Homo sapiens (Human), UniProt P00533, L858R/T790M)
Sequence (P00533 25-1210 T790M/L858R): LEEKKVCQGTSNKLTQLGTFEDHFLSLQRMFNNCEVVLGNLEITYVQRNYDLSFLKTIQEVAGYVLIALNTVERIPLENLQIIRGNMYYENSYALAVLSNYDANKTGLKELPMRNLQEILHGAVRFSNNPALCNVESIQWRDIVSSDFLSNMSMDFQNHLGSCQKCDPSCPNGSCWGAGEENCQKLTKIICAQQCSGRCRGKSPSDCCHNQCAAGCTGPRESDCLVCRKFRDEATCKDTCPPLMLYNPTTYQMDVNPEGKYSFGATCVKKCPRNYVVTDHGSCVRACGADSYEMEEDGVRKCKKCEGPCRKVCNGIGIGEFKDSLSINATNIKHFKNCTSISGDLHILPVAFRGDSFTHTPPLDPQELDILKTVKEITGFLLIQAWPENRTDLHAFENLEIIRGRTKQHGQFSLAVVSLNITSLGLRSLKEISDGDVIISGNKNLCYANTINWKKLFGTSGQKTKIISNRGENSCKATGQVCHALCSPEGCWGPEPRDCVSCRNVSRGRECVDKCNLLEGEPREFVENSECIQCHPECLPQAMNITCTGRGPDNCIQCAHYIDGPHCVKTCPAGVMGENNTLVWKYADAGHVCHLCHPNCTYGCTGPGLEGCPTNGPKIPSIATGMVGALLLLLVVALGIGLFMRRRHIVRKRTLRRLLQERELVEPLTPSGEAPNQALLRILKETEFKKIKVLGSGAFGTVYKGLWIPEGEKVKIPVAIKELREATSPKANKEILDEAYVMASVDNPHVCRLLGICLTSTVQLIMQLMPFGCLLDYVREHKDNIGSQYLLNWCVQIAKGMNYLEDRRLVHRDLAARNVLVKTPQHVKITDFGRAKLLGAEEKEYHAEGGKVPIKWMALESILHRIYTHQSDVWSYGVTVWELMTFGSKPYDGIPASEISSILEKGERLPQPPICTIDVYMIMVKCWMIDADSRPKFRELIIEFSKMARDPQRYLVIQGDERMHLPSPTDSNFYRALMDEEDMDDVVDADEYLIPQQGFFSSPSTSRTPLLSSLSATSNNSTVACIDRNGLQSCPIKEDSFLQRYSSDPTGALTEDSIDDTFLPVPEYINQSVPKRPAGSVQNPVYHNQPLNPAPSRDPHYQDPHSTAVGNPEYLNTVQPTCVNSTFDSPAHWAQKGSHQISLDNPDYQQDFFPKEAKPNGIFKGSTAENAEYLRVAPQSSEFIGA
Test: TR-FRET assay for ERBB kinases
Settings: geometric mean if measured more than once
Protocol: TR-FRET Assay for ERBB Kinases All compounds and PROTACs were serially diluted in three-fold increments using 100% DMSO, followed by an intermediate 10-fold dilution using Buffer A (50 mM HEPES, pH 7.5, 50 mM NaCl, 10 mM MgCl2, 1 mM DTT, and 0.1% Pluronic F-68). […] Next, 10 uL of protein kinase in Buffer A was added to each well of the assay plate and pre-incubated with compound for 10 minutes. […]
PROPERTY_MEASURED: IC50 (µM)

COMPOUND | PROPERTY_MEASURED | REPORTED
Cc1ncsc1-c1ccc([C@H](C)NC(=O)[C@@H]2C[C@@H](O)CN2C(=O)[C@@H](NC(=O)COCCOCCCNCC2CN(c3nn(C(C)C)c4cc(Nc5ccnc(-c6cnn(S(=O)(=O)C7CC7)c6)n5)ncc34)C2)C(C)(C)C)cc1 [compound 308] | IC50 | 0.00091
Cc1ncsc1-c1ccc([C@H](C)NC(=O)[C@H]2C[C@H](O)CN2C(=O)[C@@H](NC(=O)COCCOCCOCCOCCOc2ccc(-c3nccc(Nc4cc5c(cn4)nc(C)n5C(C)C)n3)cc2)C(C)(C)C)cc1 [compound 279] | IC50 | 29
